B1: tRNA (parent)
chain: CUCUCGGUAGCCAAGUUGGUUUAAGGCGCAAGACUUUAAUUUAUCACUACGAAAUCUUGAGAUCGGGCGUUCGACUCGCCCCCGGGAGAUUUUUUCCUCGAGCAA

Variants of: B1
protocol.summary: nonsense suppression (GFP-seq) (ratio to wild type); higher = more function; SUP4oc tRNA, yeast GFP reporter sort-seq
Variants at the floor of the assay were thinned out.
outcome.measure: nonsense suppression
Reply: number alone, nothing else.

Please review the following examples before continuing.
INSERT INTO assay_data (variant_notation, observed_result) VALUES
  ('U21A A54U', 0.737),
  ('U16G A31G', 1.15),
  ('U21A A30G', 0.42);

State the recorded nonsense suppression for this entry: U16C G61U G73A
0.438

State the recorded nonsense suppression for this entry: C27U U63C
0.0314

State the recorded nonsense suppression for this entry: C75A C82A
0.217

State the recorded nonsense suppression for this entry: U35C G61A
0.0378

State the recorded nonsense suppression for this entry: A60G G85U
0.138

State the recorded nonsense suppression for this entry: G65C G66C U76C
0.793

State the recorded nonsense suppression for this entry: A30G U71C
0.035
